Source listed as patent US10597388B2.

system: nutsedge, yellow (yellow nutsedge, Cyperus esculentus); assay: Test C greenhouse herbicide test, pre- and postemergence; format: in vivo; conditions: Preemergence, 125 g ai/ha; scale 0 to 100, 0 is no effect, 100 is complete control
Text: […]
Property Name: Plant response rating, Nutsedge, Yellow
Field format: numeric only.

A selection of reference data follows.
{"columns": ["Structure", "Plant response rating, Nutsedge, Yellow"],
 "data": [
  ["Cn1nc(Br)c(O)c(-c2cccc3ccccc23)c1=O", 95],
  ["CC(=O)Oc1c(C)nn(C)c(=O)c1-c1c(C)sc2ccc(Cl)cc12", 70],
  ["Cc1ccc2ccccc2c1-c1c(OC(=O)OC(C)C)c(C)nn(C)c1=O", 60],
  ["Cc1cc(C)c2ccccc2c1-c1c(O)c(C)nn(C)c1=O", 85],
  ["Cc1nn(C)c(=O)c(-c2cccc3ccccc23)c1O", 10]
]}

## Input Report Plant response rating, Nutsedge, Yellow for Cc1sc2ccccc2c1-c1c(O)c(Cl)nn(C)c1=O please.
## Output 80
